Origin of values: patent US20240309015A1

Tested on: KRas wild type
Assay: Ras GTP Binding Domain Inhibition Assay, KRas wild type
Settings: at 20 μM; with SOS
observed_property: KRas wild type + SOS: % inh.

compound: COCCCNc1nc(-c2nccn2C)nc2sc(-c3ccccc3)c(-c3ccccc3)c12 [Compound 3]
experimental_result: A (A = 1-25% inhibition)
--
compound: COCCCn1c(-c2nccn2C)nc2sc(-c3ccn(C(C)C)n3)c(-c3ccccc3)c2c1=O [Compound 36]
experimental_result: A (A = 1-25% inhibition)
--
compound: COCCOc1nc(-c2nccn2C)nc2sc(-c3ccn(C(C)C)n3)c(C)c12 [Compound 30]
experimental_result: 0 (0 = 0% inhibition)
--
compound: COCCCCOc1nc(-c2nccn2C)nc2sc(-c3ccn(C(C)C)n3)c(C)c12 [Compound 34]
experimental_result: 0 (0 = 0% inhibition)
